Measured apparent Kd by item
- Tested on: MS2 coat protein
- Method Notes: apparent Kd, MS2 coat protein; higher = weaker binding; RNA-MaP array; theophylline 2 mM where present
- Condition Description: designed as: OFF switch for theophylline; no ligand
# unit: nM | format: bare number

Worked examples follow.
{"Item Sequence": "ACCUCACUCUCUGAUACCAGCUAACAACAUGAGGAUCACCCAUGUCAGACUUGUAUUGAUAGCCCUUGGCAGCAGAGGUAACUGC", "Recorded Result": 16.2}
{"Item Sequence": "UGACAUUGCUCAGAUACCAGACAUGAGGAUCACCCAUGUACCAAGAAAACGUACAAUAAUGUCCCUUGGCAGCUGAGCAAUGUCU", "Recorded Result": 101}
{"Item Sequence": "UUUUUCGCGUUUGAUACCAGCAGAGUUGUUCUGGUCUGGUACAUGAGGAUCACCCAUGUCUGCCCUUGGCAGCAAACGGGAGAAG", "Recorded Result": 11.5}
{"Item Sequence": "AUAGUCUAGAGUGAUACCAGACUACAUGAGGAUCACCCAUGUAUCUUUUGGUUAUCAUGUGUCCCUUGGCAGCACGCAUGUAUAG", "Recorded Result": 10.1}
{"Item Sequence": "AGCGAUAUGCAUGAUACCAGCUACAUGAGGAUCACCCAUGUGCGUCAGAAAUGACUGUGUAGCCCUUGGCAGCAUAGAGCAUGUA", "Recorded Result": 37.4}
{"Item Sequence": "UUUUUUAUUAUGGCGUAUCGGAAAACCGAUACCAGUACAGAAAUGUACCCUUGGCAGCGGCGUUUUACAUGAGGAUCACCCAUGU", "Recorded Result": 13.9}
{"Item Sequence": "UUAUAUAUACAUGAGGAUCACCCAUGUGAUACCAGCCUGGAAACAGGCCCUUGGCAGCACAAAUACUCCAGAAAAUAUAAUAAAU", "Recorded Result": 26.7}
{"Item Sequence": "AGCGAUAUGCAUGAUACCAGCUACAUGAGGAUCACCCAUGUACGUCAGUAAUGACUGUGUAGCCCUUGGCAGCAUAGAGCAUGUA", "Recorded Result": 25.5}
{"Item Sequence": "UAUAUAUAUAGUGAUACCAGCAGAGAAAACGUUUAUCCUAACAUGAGGAUCACCCAUGUAUGCCCUUGGCAGCGUUAUAUAUAUA", "Recorded Result": 24}
{"Item Sequence": "ACAUGAGGAUGGGAUACCAGAUACAUGAGGAUCACCCAUACAUGAGGAUCACCCAUGUCCGUCCCUUGGCAGCCCAACAUGAGGA", "Recorded Result": 169}

Q) Please look up its apparent Kd: GCAUGCGAUACCGAUACCAGCUACUCCAUGGCGCUCCACAUGAGGAUCACCCAUGUAAAUAGCCCUUGGCAGCGGUAUUGAGAUG
A) 22.7

Q) Next entry: ACUAGUUGUGCAGAUACCAGACAUGAGGAUCACCCAUGUUUGGGAUCUUCGGAUCUUCCUGUCCCUUGGCAGCUGUACAUCUAGA
A) 85
